Target: CELF1 RRM1-2 (UniProt Q92879 1-187)
Sequence (Q92879 1-187): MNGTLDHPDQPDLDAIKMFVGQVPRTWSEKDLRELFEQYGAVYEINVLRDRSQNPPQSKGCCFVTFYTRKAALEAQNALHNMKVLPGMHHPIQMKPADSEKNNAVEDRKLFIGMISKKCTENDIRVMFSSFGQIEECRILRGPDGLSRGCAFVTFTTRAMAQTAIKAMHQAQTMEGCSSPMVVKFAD
Assay: CG-MALS
recorded.metric: Kd (nM)

[[record]]
binder = "GUGUGUGUGUGUGUGUGUGUGUGUGUGUGUGUGUGUGUGUGUGU (ssRNA) [(GU)22 ssRNA]"
value_measured = 390

